The reported measurements were obtained from PubChem BioAssay (NCI).

System: SF-295 CNS
Protocol text: NCI tumour cell line growth inhibition, 48 h
Collected TGI values appear next to each entry.

Consider the following illustrative entries.
INSERT INTO measurements (compound, target_under_test, result) VALUES
  ('Cc1cc(OCc2nnc3n2N=C(c2cc(F)c(Cl)cc2Cl)/C(=C/c2ccc(Cl)cc2)S3)ccc1Cl', 'SF-295 CNS', '> 100 µM'),
  ('CSc1nncc2[nH]c(C)nc12', 'SF-295 CNS', '> 100 µM'),
  ('COC(=O)C1(OC(=O)Sc2ccccc2)CCN(C)CC1', 'SF-295 CNS', '> 59.5 µM');

Which measured TGI value corresponds to `O=C(/C=C/C=C/c1ccccc1)c1ccc2c(c1)CCCC2` ?
> 100 µM

Which TGI reading was recorded for the compound `Cc1nc2ccccc2nc1-c1ccc(N=[N+]([O-])c2ccc(-c3nc4ccccc4nc3C)cc2)cc1` ?
> 100 µM

Return reported TGI; argument: COC1[C@@H](OC(C)=O)[C@@H](NC(=O)C(Cl)(Cl)Cl)C(I)[C@@H](N2C(=O)c3ccccc3C2=O)[C@H]1OC (stereo partly drawn)
> 100 µM

Value lookup for TGI; key = `O=c1c2ccccc2sc2cccc(NCCCN3CCN(CCCNc4cccc5sc6ccccc6c(=O)c45)CC3)c12`
> 100 µM

GET /values?readout=TGI&item= `NCCCNCCCCNCCCN`
> 100 µM

Please report the recorded TGI for `CC(=O)Nc1ccc(-c2nc3cc(Cl)ccc3o2)cc1` .
> 50 µM

Look up TGI for this compound: `Nc1nc(N)c(N=Nc2ccc([As](=O)(O)O)cc2)c(=O)[nH]1`
> 100 µM

Would you mind telling me what TGI value was observed for `Nc1c(C(=O)Nc2cccc(Br)c2)sc2nc3c(cc12)C(=O)CCC3` ?
> 59.7 µM

Consider the compound shown here: Cc1c(CNc2ccc(C(=O)NC(CC(=O)O)C(=O)O)cc2)ccc2nc(N)nc(N)c12 (stereo not drawn) What is its recorded TGI?
> 1000 µM

Which TGI value is on record for `Cc1ccc(C(=O)N/N=C(\N=Nc2ccccc2[N+](=O)[O-])c2ccc(N(C)C)cc2)cc1` ?
> 100 µM

What value of TGI has been reported for the following compound? CC1(C)OC2C(O)CN3CCS[C@H]3C2O1 (stereo partly drawn)
> 100 µM

What value of measured TGI is listed for CC(C)(C)c1cc(C(CO)OCCOCCO)cc(C(C)(C)C)c1O (stereo not drawn) ?
> 100 µM

// lookup TGI for `N#C/C(N)=C(\C#N)NC=NCc1ccccc1`
> 100 µM

What does the record list as TGI for O=S(Cc1ccccn1)c1nc2ccccc2nc1-c1ccccc1 (stereo not drawn) ?
> 100 µM

====

Attribute: TGI
System: MOLT-4 leukemia
Protocol text: NCI tumour cell line growth inhibition, 48 h

Would you please look over these solved cases?
INSERT INTO measurements (compound, result) VALUES
  ('CC1(C)OCCn2c1nc1c(N3CCOCC3)nc(-c3cnc(N)nc3)nc12', '> 100 µM'),
  ('COc1ccccc1N1CCN(CCCn2c(=O)c3c(OC)nc(C)cc3c(=O)n2-c2ccccc2)CC1', '> 100 µM'),
  ('CC[C@]1(Cc2ccc(OC)c(OC)c2)[C@@H]2C[C@@H](C3OCCO3)ON2O[C@H](OC2CCCC2(c2ccccc2)c2ccccc2)[C@@H]1OC(C)=O (stereo not given in full)', '29 µM'),
  ('CCO/C=N/NC(=O)CSc1nc2ccc(I)cc2c(=O)n1Cc1ccccc1', '> 100 µM'),
  ('CCOC(=O)c1ccc(NC(=O)O/N=C(/Cl)CCl)cc1', '> 100 µM');

Entry under review: `S=c1[nH]n2c(COc3cccc(OCc4nnc5sc(=S)[nH]n45)c3)nnc2s1` . Reported TGI?
> 100 µM

May I ask what TGI has been recorded for CC(=O)OC1(C#N)CC2OC1C1C2N=NN1C(=O)OC(C)(C)C (stereo not given) ?
> 100 µM

If you can, please state the reported TGI value of `CCCCCCC[CH2][Sn]1([CH2]CCCCCCC)[O]C(=O)c2cccnc2[S]1` .
> 100 µM

Entry O=C1NN=C2C=C(c3ccc(Cl)cc3)CC(c3cccc(Cl)c3)C12 (stereo not given) has what TGI?
52.9 µM

For `COc1ccc(CCN=C2OCc3ccccc32)cc1OC` , what is its reported TGI?
> 100 µM
